- target.desc: T1, recombinant rat MASP1 (amino acids 302-704, C-terminal His Tag) (rat, UniProt Q8CHN8 302-704)
- T1 sequence: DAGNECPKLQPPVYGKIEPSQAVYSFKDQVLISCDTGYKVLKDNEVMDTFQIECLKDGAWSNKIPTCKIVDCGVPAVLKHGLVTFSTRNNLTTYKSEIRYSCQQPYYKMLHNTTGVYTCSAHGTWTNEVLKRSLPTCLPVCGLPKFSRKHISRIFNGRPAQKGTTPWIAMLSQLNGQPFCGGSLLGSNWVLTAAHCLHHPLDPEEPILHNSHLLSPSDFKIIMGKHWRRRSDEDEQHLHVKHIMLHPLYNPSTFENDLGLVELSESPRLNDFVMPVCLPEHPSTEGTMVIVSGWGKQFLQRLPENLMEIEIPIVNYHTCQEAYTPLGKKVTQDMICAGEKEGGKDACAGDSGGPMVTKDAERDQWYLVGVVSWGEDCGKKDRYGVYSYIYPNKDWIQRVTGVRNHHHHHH
- test.method.notes: cell-based or functional assay
Bridges are numbered along the chain shown (N, C = ends). Where no end group is shown, it is not given here. [ ]: non-standard residue; d: D form. Oic = O=C(O)[C@@H]1C[C@@H]2CCCC[C@@H]2N1; tBuAla = CC(C)(C)C[C@H](N)C(=O)O; Pen = CC(C)(S)[C@H](N)C(=O)O; 4Amb = NCc1ccc(C(=O)O)cc1; Dap = NC[C@H](N)C(=O)O; Ahx = NCCCCCC(=O)O
The entries below are paired with their reported rat MASP1 IC50.
value.type: rat MASP1 IC50 (nM)

1. cyclo([Ahx][4Amb]ICSRS[tBuAla]PPI[Pen]IP) (disulfide 4-12; also: TFA salt) [Example 68: (Ahx)**-(4-(Aminomethyl)benzoic acid)-IC+SRS-((tBu)A)-PPI-(Pen)+-IP**] | 30.8
2. EGICSRSLP[Oic]I[Pen]IPD[Dap]-NH2 (lactam 1-16; disulfide 4-12; also: TFA salt) [Example 93: E++GIC+SRSLP-(Oic)-I-(Pen)+-IPD-(Dap)++-NH2] | 410
3. [Ahx]ICSRSLP[Oic]I[Pen]IPE-NH2 (disulfide 3-11; lactam N-14; also: TFA salt) [Example 75: (Ahx)**-IC+SRSLP-(Oic)-I-(Pen)+-IPE++-NH2] | 27
